Ref: patent US10487078B2

What EC50 was measured for each of the following?
- System: Erk phosphorylation in Panc10.05 (G12D) cells
- assay_overview: In-Cell Western Erk phosphorylation
- Assay type: cell-based
- recorded_conditions: EC50, one hour treatment; read-out: In-Cell Western Erk phosporylation Panc10.05 (G12D)
One number for each entry, in µM.

The following compounds have reported results that may help.
[[record]]
compound = "COCc1nc(C)c(C(=O)Nc2nc(-c3ccc4c(c3)CCC(=O)N4)cs2)s1 [Compound 4876]"
subject_of_test = "Erk phosphorylation in Panc10.05 (G12D) cells"
unit_abbrev = "µM"
endpoint_value = 17

[[record]]
compound = "Cc1nc(-c2ccccc2)sc1C(=O)Nc1nc(-c2ccc3c(c2)CCC(=O)N3)cs1 [Compound 4878]"
subject_of_test = "Erk phosphorylation in Panc10.05 (G12D) cells"
unit_abbrev = "µM"
endpoint_value = 13


Answer for every listed entry: what is its EC50? The entries follow.
1. Cc1nc(C)c(C(=O)Nc2nc(-c3ccc4[nH]c(=O)[nH]c4c3)cs2)s1 [Compound 4562]
2. Cc1ccccc1C(=O)Nc1nc(-c2ccc3c(c2)CCC(=O)N3)cs1 [Compound 4874]
3. Cc1nc(C2CC2)sc1C(=O)Nc1nc(-c2ccc3c(c2)CCC(=O)N3)cs1 [Compound 4877]

Reply text:
[4, 14, 3]

Answer for every listed entry: what is its EC50? The entries follow.
1. CCc1nc(C)c(C(=O)Nc2nc(-c3ccc4c(c3)CCC(=O)N4)cs2)s1 [Compound 4891]
2. Cc1nc(C)c(CNc2nc(-c3ccc4c(c3)CCC(=O)N4)cs2)s1 [Compound 4856]
3. Cc1nc(C2CCOC2)sc1C(=O)Nc1nc(-c2ccc3c(c2)CCC(=O)N3)cs1 (stereo not shown) [Compound 4892]

Reply text:
1: 2; 2: 19; 3: 2

* * *

- System: Panc10.05 (G12D) cells
- assay_overview: 72 hr cell viability (CellTiterBlue)
- Assay type: cell-based
- recorded_conditions: GI50, 72 hr
parameter: IC50 (µM)
Answers are plain numbers, in µM.

[[record]]
compound = "Cc1nc(C2CCOC2)sc1C(=O)Nc1nc(-c2ccc3c(c2)CCC(=O)N3)cs1 (stereo not shown)"
parameter = "IC50"
endpoint_value = 6

[[record]]
compound = "Cc1nc(C)c(C(=O)Nc2nc(-c3ccc4c(c3)CCC(=O)N4Cc3ccccc3)cs2)s1"
parameter = "IC50"
endpoint_value = 4

[[record]]
compound = "CCc1nc(C)c(C(=O)Nc2nc(-c3ccc4c(c3)CCC(=O)N4)cs2)s1"
parameter = "IC50"
endpoint_value = 4


Inquiry: Give its IC50 value. Item: `Cc1nc(C)c(C(=O)Nc2nc(-c3ccc4[nH]c(=O)[nH]c4c3)cs2)s1`
Reply text: 2

* * *

What Kd was measured for each of the following?
- subject_of_test: K-ras G12V (GTP) (Homo sapiens, UniProt P01116, G12V)
- Sequence (P01116 1-188 isoform P01116-2 G12V): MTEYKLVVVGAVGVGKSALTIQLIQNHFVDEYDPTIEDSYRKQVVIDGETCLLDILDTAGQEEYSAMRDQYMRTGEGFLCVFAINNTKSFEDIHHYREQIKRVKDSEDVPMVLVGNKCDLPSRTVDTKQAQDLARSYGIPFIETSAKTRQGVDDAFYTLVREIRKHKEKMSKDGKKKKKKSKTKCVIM
- assay_overview: SPR assay (surface plasmon resonance)
- Format: binding
- recorded_conditions: 25° C., 8% DMSO
Numbers only, in µM.

Answer for every listed entry: what is its Kd? The entries follow.
1. Cc1nc(C)c(C(=O)Nc2nc(-c3cc4c5c(c3)CCN5C(=O)CC4)cs2)s1 [Compound 4749]
2. Cc1nc(C)c(C(=O)Nc2nc(-c3ccc4c(c3)CCC(=O)N4C)cs2)s1 [Compound 4687]
3. Cc1nc(C)c(C(=O)Nc2nc(-c3ccc4c(c3)CCC(=O)O4)cs2)s1 [Compound 4664]
4. O=C1CCc2cc(-c3csc(NC(=O)c4scnc4C4CC4)n3)ccc2N1 [Compound 4735]

Reply text:
1: 6.08; 2: 6.6; 3: 36.8; 4: 43

Answer for every listed entry: what is its Kd? The entries follow.
1. CC(=O)N1CCCc2cc(-c3csc(NC(=O)c4sc(C)nc4C)n3)ccc21 [Compound 4686]
2. CCc1ncsc1C(=O)Nc1nc(-c2ccc3c(c2)CCC(=O)N3)cs1 [Compound 4747]
3. Cc1nc(C)c(C(=O)Nc2nc(-c3ccc4c(c3)CCC(=O)N4)cs2)[nH]1 [Compound 4805]
4. O=C1CCc2cc(-c3csc(NC(=O)c4scnc4-c4ccccc4)n3)ccc2N1 [Compound 4800]

Reply text:
1: 11.4; 2: 10.1; 3: 12.1; 4: 15.2
